Could you please report measured pIC50 for the items listed next?
# system_tested: BACE1 (Homo sapiens)
# Sequence (P56817 46-501, species assumed): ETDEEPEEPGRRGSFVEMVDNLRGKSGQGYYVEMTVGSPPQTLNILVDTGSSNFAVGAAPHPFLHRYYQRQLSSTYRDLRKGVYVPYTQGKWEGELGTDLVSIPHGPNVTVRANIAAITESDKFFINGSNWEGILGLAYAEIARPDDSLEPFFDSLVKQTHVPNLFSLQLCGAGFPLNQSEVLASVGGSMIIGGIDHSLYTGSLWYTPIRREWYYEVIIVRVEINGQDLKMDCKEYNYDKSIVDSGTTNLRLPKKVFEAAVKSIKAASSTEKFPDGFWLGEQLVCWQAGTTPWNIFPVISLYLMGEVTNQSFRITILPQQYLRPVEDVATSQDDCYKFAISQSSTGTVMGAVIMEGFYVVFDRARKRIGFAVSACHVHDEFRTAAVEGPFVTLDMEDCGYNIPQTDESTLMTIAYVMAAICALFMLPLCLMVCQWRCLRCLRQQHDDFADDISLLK
# test_name: In vitro enzymatic BACE FRET (fluorescence resonance energy transfer) assay
# Assay type: biochemical
# Description: In Vitro Enzymatic BACE FRET (Fluorescence Resonance Energy Transfer) Assay (Enzyme Assay Data in Table 1) The assay buffer used in this screen is 0.05 M acetate, pH 4.2, 10% DMSO final, 100 uM genapol (which is a nonionic detergent, below its Critical Micelle Concentration). […] The FRET assay is terminated with by addition of Tris buffer, which raises the pH to neutrality, and the fluorescence is determined. […]
Answers are plain numbers, as −log10 of the molar value.

Record pIC50 per entry; entries follow.
1. C=CCC(NC(=O)C1CCC(=O)O1)C(O)CNC1CC2(CCC2)Oc2cnc(C(F)(F)F)cc21 (stereo not shown) [Example 119]
2. C=CC[C@H](NC(C)=O)[C@H](O)CN[C@H]1CC2(CCC2)Oc2ccc(CC(C)(C)C)cc21 [Example 33]
3. C=CC[C@H](NC(=O)c1ccc(F)cc1)[C@H](O)CN[C@H]1CC2(CCC2)Oc2ncc(CC(C)(C)C)cc21 [Example 58]
4. CC(=O)N[C@H]([C@H](O)CN[C@H]1CC2(CCC2)Oc2ncc(CC(C)(C)C)cc21)C(C)(C)C [Example 81]

[5.03, 6.67, 6.76, 4.67]

* * *

# test_name: Microsomal stability assay, rat liver microsomes
# Assay type: in vitro ADME
measured_quantity: RLM (µL/min/mg)
Give bare numbers, in µL/min/mg.

> print(dat)
                                smiles.data  measured.quantity  number
1  C=CC[C@H](NC(=O)COC)[C@H](O)CN[C@H]1CC2(CCC2)Oc2c1cc(CC(C)C)cc2-n1ccnc1                RLM     183

For every listed record, write down its RLM.
1. CCC[C@H](NC(=O)[C@H]1CCCO1)[C@H](O)CN[C@H]1CC2(CCC2)Oc2c1cc(CC(C)(C)C)nc2NC
2. C=CC[C@H](NC(=O)COC)[C@H](O)CN[C@H]1CC2(CCC2)Oc2c(-c3nccs3)cc(CC(C)C)cc21
3. C=CC[C@H](NC(=O)COC)[C@H](O)CN[C@H]1CC2(CCC2)Oc2c(-c3nccs3)cc(CC(C)(C)C)cc21

[345, 399, 551]

Please give RLM for each item listed below.
1. C=CC[C@H](NC(C)=O)[C@H](O)CN[C@H]1CC2(CCC2)Oc2c1cc(CC(C)(C)C)nc2Nc1nccs1
2. C=CC[C@H](NC(=O)CCC(C)(C)C)[C@H](O)CN[C@H]1CC2(CCC2)Oc2ncc(CC(C)(C)C)cc21
3. C=CC[C@H](NC(=O)COC)[C@H](O)CN[C@H]1CC2(CCC2)Oc2c(Br)cc(CC(C)(C)C)cc21

100
459
247

* * *

# test_name: Microsomal stability assay, human liver microsomes
# Assay type: in vitro ADME
measured_quantity: HLM (µL/min/mg)
Numbers only, in µL/min/mg.

Some compounds with known HLM results, for comparison:
> print(dat)
                                   compound  number
1  C=CC[C@H](NC(=O)COC)[C@H](O)CN[C@H]1CC2(CCC2)Oc2c(-c3nccs3)cc(CC(C)C)cc21 [compound 212]     775
2  C=CC[C@H](NC(=O)COC)[C@H](O)CN[C@H]1CC2(CCC2)Oc2c1cc(CC(C)(C)C)cc2-n1ccnc1 [Example 216]      49
3  C=CC[C@H](NC(=O)[C@@H](C)OC)[C@H](O)CN[C@H]1CC2(CCC2)Oc2c(-c3nccs3)cc(CC(C)C)cc21 [compound 210]     829
4  C=CC[C@H](NC(=O)COC)[C@H](O)CN[C@H]1CC2(CCC2)Oc2c1cc(CC(C)(C)C)nc2Nc1ccccc1 [compound 230]     345

Give HLM for all compounds that follow.
1. C=CC[C@H](NC(=O)COC)[C@H](O)CN[C@H]1CC2(CCC2)Oc2c(-c3ccc4c(c3)OCO4)cc(CC(C)(C)C)cc21 [compound 231]
2. CCC[C@H](NC(=O)COC)[C@H](O)CN[C@H]1CC2(CCC2)Oc2c1cc(CC(C)(C)C)nc2NC [compound 226]
3. C=CC[C@H](NC(=O)[C@H]1CCC(=O)O1)[C@H](O)CN[C@H]1CC2(CCC2)Oc2ncc(CC(C)(C)C)cc21 [compound 211]
4. C=CC[C@H](NC(=O)COC)[C@H](O)CN[C@H]1CC2(CCC2)Oc2c(Br)cc(CC(C)(C)C)cc21 [compound 214]
5. C=CC[C@H](NC(=O)COC)[C@H](O)CN[C@H]1CC2(CCC2)Oc2c1cc(CC(C)C)cc2-n1ccnc1 [compound 209]
6. CCOC[C@H](NC(C)=O)[C@@H](O)CN[C@H]1CC2(CCC2)Oc2ncc(CC(C)(C)C)cc21 [compound 241]
7. C=CC[C@H](NC(=O)COCC)[C@H](O)CN[C@H]1CC2(CCC2)Oc2ncc(CC(C)(C)C)cc21 [compound 244]

[284, 161, 104, 492, 31, 84, 543]

Go through the items and report each one's HLM.
1. C=CC[C@H](NC(=O)COC)[C@H](O)CN[C@H]1CC2(CCC2)Oc2c(-c3cncs3)cc(CC(C)(C)C)cc21 [compound 217]
2. C=CC[C@H](NC(=O)COC)[C@H](O)CN[C@H]1CC2(CCC2)Oc2c1cc(CC(C)(C)C)nc2Nc1ccc2c(c1)OCO2 [compound 233]
3. C=CC[C@H](NC(=O)CCC(C)(C)C)[C@H](O)CN[C@H]1CC2(CCC2)Oc2ncc(CC(C)(C)C)cc21 [compound 245]

[551, 151, 829]

* * *

# test_name: Microsomal stability assay, rat liver microsomes
# Assay type: in vitro ADME
Assign RLM to each entry below.
Numbers only, in µL/min/mg.

Previously resolved entries follow.
> print(dat)
                                smiles.data  number
1  C=CC[C@H](NC(=O)COC)[C@H](O)CN[C@H]1CC2(CCC2)Oc2c1cc(CC(C)(C)C)nc2-c1nccn1C      64
2  C=CC[C@H](NC(=O)COC)[C@H](O)CN[C@H]1CC2(CCC2)Oc2c(-c3cnc[nH]3)cc(CC(C)(C)C)cc21     185
3  CCC[C@H](NC(=O)COC)[C@H](O)CN[C@H]1CC2(CCC2)Oc2c1cc(CC(C)(C)C)nc2NC     259
4  C=CC[C@H](NC(=O)COC)[C@H](O)CN[C@H]1CC2(CCC2)Oc2ncc(C(F)(F)C(C)(C)C)cc21     173

Give one value of RLM per listed compound.
1. C=CC[C@H](NC(=O)COC)[C@H](O)CN[C@H]1CC2(CCC2)Oc2c1cc(CC(C)(C)C)nc2Nc1ccncc1
2. C=CC[C@H](NC(=O)COC)[C@H](O)CN[C@H]1CC2(CCC2)Oc2c1cc(CC(C)(C)C)nc2Nc1ccc2c(c1)OCO2
3. COC[C@H](NC(C)=O)[C@H](O)CN[C@H]1CC2(CCC2)Oc2ncc(CC(C)(C)C)cc21

1: 174; 2: 197; 3: 14

* * *

Can you tell me IC50 for the items I'm about to list?
# system_tested: BACE1 (Homo sapiens)
# test_name: In vitro enzymatic BACE FRET (fluorescence resonance energy transfer) assay
# Assay type: biochemical
One number for each entry, in nM.

Known IC50 results, listed for orientation:
> print(dat)
                                   compound  number
1  C=CC[C@H](NC(=O)c1cncnc1)[C@H](O)CN[C@H]1CC2(CCC2)Oc2ncc(CC(C)(C)C)cc21 [Example 68]     271
2  C=CCC(NC(=O)C1CC1OCC)C(O)CNC1CC2(CCC2)Oc2ncc(CC(C)(C)C)cc21 (centres unmarked) [Example 153]     104
3  C=CC[C@H](NC(C)=O)[C@H](O)CN[C@H]1CC2(CCC2)Oc2c1cc(CC(C)(C)C)nc2N(C)C [Example 45]     905
4  C=CC[C@H](NC(=O)c1cccnn1)[C@H](O)CN[C@H]1CC2(CCC2)Oc2ncc(CC(C)(C)C)cc21 [Example 57]     131
5  C=CCC(NC(C)=O)C(O)CNC1CC2(CC(O)C2)Oc2ccc(CC(C)(C)C)cc21 (centres unmarked) [Example 116]      15
6  C=CCC(NC(=O)C1CN(C(=O)N2CCCCC2)CCO1)C(O)CNC1CC2(CCC2)Oc2ncc(CC(C)(C)C)cc21 (centres unmarked) [Example 152]      12
7  C=CC[C@H](NC(=O)c1csc(F)c1)[C@H](O)CN[C@H]1CC2(CCC2)Oc2ncc(CC(C)(C)C)cc21 [Example 135]     137
8  C=CC[C@H](NC(=O)CCOC)[C@H](O)CN[C@H]1CC2(CCC2)Oc2ncc(CC(C)(C)C)cc21 [Example 91]      68

List IC50 for every entry below, keeping the order given.
1. C=CC[C@H](NC(C)=O)[C@H](O)CN[C@H]1C[C@]2(CC[C@H]2O)Oc2ncc(CC(C)(C)C)cc21 [Example 52]
2. C=CC[C@H](NC(=O)C1CC(=O)N(C2CCC2)C1)[C@H](O)CN[C@H]1CC2(CCC2)Oc2ncc(CC(C)C)cc21 (some centres unmarked) [Example 40]
3. C=CC[C@H](NC(=O)[C@H](F)c1ccccc1)[C@H](O)CN[C@H]1CC2(CCC2)Oc2ncc(CC(C)(C)C)cc21 [Example 143]
4. C=CC[C@H](NC(=O)c1cnccn1)[C@H](O)CN[C@H]1CC2(CCC2)Oc2ncc(CC(C)(C)C)cc21 [Example 98]
5. C=CC[C@H](NC(=O)c1ccc(F)cc1F)[C@H](O)CN[C@H]1CC2(CCC2)Oc2ncc(CC(C)(C)C)cc21 [Example 70]
6. C=CC[C@H](NC(C)=O)[C@H](O)CN[C@H]1CC2(CCC2)Oc2ncc(CC(C)C)cc21 [Example 38]

1. 70
2. 6
3. 2890
4. 741
5. 264
6. 81

These measurements were taken from patent US8633315B2.
